# system-tested: human CTLA-4 (human) (UniProt P16410)
# Sequence (P16410 36-223): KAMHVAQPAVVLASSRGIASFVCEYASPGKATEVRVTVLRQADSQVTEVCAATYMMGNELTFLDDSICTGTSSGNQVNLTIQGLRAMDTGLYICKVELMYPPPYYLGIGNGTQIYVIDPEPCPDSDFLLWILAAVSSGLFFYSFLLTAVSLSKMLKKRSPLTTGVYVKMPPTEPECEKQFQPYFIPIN
# procedure-summary: flow cytometry, CHO/huCTLA-4 cells; vs WT CD80 ECD-Fc (Abcam)
property: Fold change to WT CD80 (fold)

1) variant CD80 IgV-Fc E35D/D46V/M47L/L85Q (Fc fusion) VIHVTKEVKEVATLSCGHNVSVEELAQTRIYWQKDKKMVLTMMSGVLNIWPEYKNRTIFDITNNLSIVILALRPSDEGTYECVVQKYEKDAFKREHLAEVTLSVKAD : 0.9
2) variant CD80 IgV-Fc E35D/M47V/N48K/V68M/L85Q (Fc fusion) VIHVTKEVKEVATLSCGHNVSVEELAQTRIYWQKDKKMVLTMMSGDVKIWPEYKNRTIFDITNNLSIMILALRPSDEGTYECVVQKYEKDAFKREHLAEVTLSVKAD : 0.6
3) variant CD80 IgV-Fc E35D/D46V/M47V/N48K/V68M (Fc fusion) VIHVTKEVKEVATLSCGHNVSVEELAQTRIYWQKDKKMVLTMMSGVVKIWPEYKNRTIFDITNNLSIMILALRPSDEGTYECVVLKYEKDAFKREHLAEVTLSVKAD : 0.6
4) variant CD80 IgV-Fc D46V/M47L/V68M (Fc fusion) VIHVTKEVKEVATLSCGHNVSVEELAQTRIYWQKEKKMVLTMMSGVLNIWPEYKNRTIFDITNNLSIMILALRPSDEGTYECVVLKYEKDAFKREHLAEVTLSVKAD : 0.9
